Below: a set of entries, each annotated with reported Reduction of cholesterol level after 6 hrs..
Tested on: total cholesterol
Test: Anti-hyperlipemia activity, total cholesterol in blood
Assay type: in vivo, rabbit (Japanese white male)
Details: oral, 300 mg/kg once, 6 hrs.
Form entry: value (mg/dL) — number only.

See these solved cases before continuing.
NC(=O)c1ccccc1NC1(CO)OC[C@@H](O)[C@@H](O)[C@@H]1O (stereo partly drawn) [Compound 1, o-Aminobenzoic acid amide-N-D-fructoside]	36
C[C@@H]1OC(Nc2cccc(C(=O)OCC3CCCCC3)c2)[C@@H](O)[C@H](O)[C@@H]1O (some centres unmarked) [Compound 22]	38
O=C(OCc1ccccc1)c1ccc(NC2O[C@H](CO)[C@@H](O)[C@H](O)[C@H]2O)cc1 (stereo partly drawn) [Compound 14, benzyl p-aminobenzoate-N-D-glucoside]	38
C[C@@H]1OC(Nc2ccc(C(=O)OCC3CCCCC3)cc2)[C@H](O)[C@H](O)[C@H]1O (some centres unmarked) [Compound 25]	44
O=C(OC1CCCCC1)c1ccccc1NC1C[C@H](O)[C@H](O)CO1 (some centres unmarked) [Compound 16]	33
C[C@@H]1OC(Nc2ccccc2C(=O)Oc2ccccc2)[C@H](O)[C@H](O)[C@H]1O (stereo partly drawn) [Compound 6, phenyl o-aminobenzoate-N-L-rhamnoside]	57
O=C(OCc1ccccc1)c1cccc(NC2O[C@H](CO)[C@@H](O[C@@H]3O[C@H](CO)[C@H](O)[C@H](O)[C@H]3O)[C@H](O)[C@H]2O)c1 (some centres unmarked) [Compound 12, benzyl m-aminobenzoate-N-lactoside]	48
O=C(OC1CCCCC1)c1ccc(NC2OC[C@@H](O)[C@H](O)[C@H]2O)cc1 (stereo partly drawn) [Compound 18, cyclohexyl p-aminobenzoate-N-D-xyloside]	62
O=C(Oc1ccccc1)c1cccc(NC2O[C@H](CO)[C@@H](O)[C@H](O)[C@@H]2O)c1 (stereo partly drawn) [Compound 7, phenyl m-aminobenzoate-N-D-mannoside]	62
O=C(OC1CCCCC1)c1ccc(NC2O[C@H](CO)[C@@H](O[C@@H]3O[C@H](CO)[C@@H](O)[C@H](O)[C@H]3O)[C@H](O)[C@H]2O)cc1 (some centres unmarked) [Compound 19]	41

Could you now look at the following molecule, please?
## Input # lookup: Reduction of cholesterol level after 6 hrs. of O=C(OCC1CCCCC1)c1ccccc1NC1O[C@H](CO)[C@@H](O[C@@H]2O[C@H](CO)[C@H](O)[C@H](O)[C@H]2O)[C@H](O)[C@H]1O (some centres unmarked) [Compound 21]
## Output 43
